pIC50: −log10 of the molar value.
The entries below pair compounds with pIC50 values for human GST-DYRK1A (Homo sapiens, UniProt Q13627), as found in several publications.

- compound: "COc1cc(S(=O)(=O)N2CCC(N3CCOCC3)CC2)ccc1Nc1nc(NC2CCCC2)c2c(C#N)c[nH]c2n1"
  readout.label: "pIC50"
  result: "6.00 to 6.52"
- compound: "O=C(c1ccc(Nc2nc(NC3CCOCC3)c3c(C(F)(F)F)c[nH]c3n2)c2c1OCCO2)N1CCN(C2COC2)CC1"
  readout.label: "pIC50"
  result: "> 7.00"
- compound: "COc1cc(S(=O)(=O)N2CCC(N3CCOCC3)CC2)ccc1Nc1nc(NCC2CC2)c2cc[nH]c2n1"
  readout.label: "pIC50"
  result: "6.00 to 6.52"
- compound: "CS(=O)(=O)CCNc1cc(Nc2ccc(C(=O)N3CCC(N4CCOCC4)CC3)c3c2OCCO3)nc2[nH]cc(C(F)(F)F)c12"
  readout.label: "pIC50"
  result: "> 7.00"
- compound: "N#Cc1c[nH]c2nc(Nc3ccc(C(=O)N4CCN(C5COC5)CC4)c4c3OCCO4)nc(NC3CCOCC3)c12"
  readout.label: "pIC50"
  result: "6.00 to 6.52"

stdin: Requested read-out: pIC50. Entry: `COc1cc(S(=O)(=O)N2CCC(N3CCOCC3)CC2)ccc1Nc1cc(NC2CCCCC2)c2c(Cl)c[nH]c2n1`
stdout: 6.00 to 6.52

stdin: Requested read-out: pIC50. Entry: `CC(C)Nc1nc(Nc2ccc(C(=O)N3CC(CO)(CO)C3)c3c2OCCO3)nc2[nH]cc(C#N)c12`
stdout: 6.00 to 6.52

stdin: Requested read-out: pIC50. Entry: `O=C(c1ccc(Nc2nc(NC3CCCC3)c3c(C(F)(F)F)c[nH]c3n2)c2c1CCO2)N1CCOCC1`
stdout: 6.00 to 6.52

stdin: Requested read-out: pIC50. Entry: `CC(C)c1cnn2c(NCc3ccc(-c4ccccn4)cc3)nc(N[C@H](CO)[C@@H](C)O)nc12`
stdout: 6.52

stdin: Requested read-out: pIC50. Entry: `CCOc1cc(Nc2ccc(C(=O)N3CCOCC3)c3c2OCCO3)nc2[nH]cc(C(F)(F)F)c12`
stdout: 6.00 to 6.52

stdin: Requested read-out: pIC50. Entry: `O=C(c1ccc(Nc2nc(NCC3CC3)c3cc[nH]c3n2)c2c1OCCO2)N1CCOCC1`
stdout: 6.00 to 6.52

stdin: Requested read-out: pIC50. Entry: COc1cc(NC(=O)Nc2cccc3c2C2CC(OC)CCN2C3=O)nc2ccccc12 (stereo not shown)
stdout: < 5.00

stdin: Requested read-out: pIC50. Entry: `CN(C)CCNc1cncc(-c2cnc3[nH]ccc3c2)n1`
stdout: < 6.30
